target: Hexose transporter 1 (Plasmodium falciparum); experiment: ST_JUDE_LEISH: Cytotoxicity at 2uM final concentration against transgenic Leishmania Mexicana promastigotes LmPfHT that are glucose transport deficient and complemented with the Plasmodium falciparum hexose transporter. Activity is measured by DNA content using SYBR green in vitro; format: functional
recorded-metric: inhibition (%)

- CC[C@H]1CN2CC[C@@H]1C[C@H]2[C@H](O)c1cc(-c2ccc(F)cc2)nc2ccc(O)cc12: 0.53
- CCC1(C)CC(CCNCc2ccccc2O)(c2ccc(F)cc2)CCO1 (centres undefined): 1.85
- CO/C(=C\C=C\c1cc2cc(Cl)c(Cl)cc2[nH]1)C(=O)N[C@H]1CN2CCC1CC2: -0.23
- CCCc1cc(O)c2c3c(c(=O)oc2c1)CN(C)CC3: 0.97
